procedure summary: in vitro
experimental setup: human, hela cells, % viability
Recorded viability at 28.5 h, 10 µM by entry
# value in %; strip the unit string

Fill in the blank: the reported viability at 28.5 h, 10 µM of CCN1C(=O)CC2(C1=O)C(=O)N(CCCOc1ccccc1OC)c1ccccc12 (stereo not drawn) is ____.
109

Fill in the blank: the reported viability at 28.5 h, 10 µM of CCCC(C)c1cn(CCc2cc(O)nc(C)n2)nn1 (stereo not drawn) is ____.
93.8

Fill in the blank: the reported viability at 28.5 h, 10 µM of Oc1cccc2ccc(-n3ccnc3)nc12 is ____.
79.3

Fill in the blank: the reported viability at 28.5 h, 10 µM of O=S(=O)(NCCN1CCCC1)c1cccc2nsnc12 is ____.
97.3

Fill in the blank: the reported viability at 28.5 h, 10 µM of Cc1cc(C)c2nc(O)nc(O)c2c1 is ____.
94.4

Fill in the blank: the reported viability at 28.5 h, 10 µM of CCn1nncc1CNC1CCc2[nH]c3ccc(C)cc3c2C1 (stereo not drawn) is ____.
98.3
